- Test system: PBMC
- Assay details: Cytotoxicity against human PBMC at 40 ug/mL after 48 hrs by MTT assay
- Format: cell-based
Recorded Activity for the following compounds
A number alone suffices; assume %.

O=C(OCCCCO[C@@H]1O[C@H](CO)[C@@H](O)[C@H](O)[C@H]1O)c1cccc2c1-c1ccccc1C2=O = 0

// field: Activity; key: "O=C(NCCOCCO)c1ccc2c(c1)C(=O)c1ccccc1-2" ; value = 0

Entry "O=C(OCCCCO[C@@H]1O[C@H](CO)[C@@H](O[C@H]2O[C@H](CO)[C@@H](O)[C@H](O)[C@H]2O)[C@H](O)[C@H]1O)c1cccc2c1-c1ccccc1C2=O" ; Activity = 37

Short answer for "O=C(OCCCCO[C@H]1O[C@H](CO)[C@@H](O)[C@H](O)[C@H]1O)c1cccc2c1-c1ccccc1C2=O" : Activity was 38

* * *

- System: PBMC
- Assay details: Cytotoxicity against human PBMC at 20 ug/mL after 48 hrs by MTT assay
- Assay type: cell-based
Activity by entry:
I only need the number, in %, no unit after it.

# example entries with known answers
O=C(NCCOCCO[C@H]1O[C@H](CO)[C@@H](O)[C@H](O)[C@H]1O)c1ccc2c(c1)C(=O)c1ccccc1-2 = 0
O=C(OCCCCO[C@@H]1O[C@H](CO)[C@@H](O)[C@H](O)[C@H]1O)c1cccc2c1-c1ccccc1C2=O = 0
O=C(NCCOCCO[C@@H]1O[C@H](CO)[C@@H](O[C@H]2O[C@H](CO)[C@@H](O)[C@H](O)[C@H]2O)[C@H](O)[C@H]1O)c1ccc2c(c1)C(=O)c1ccccc1-2 = 0

// assay PBMC, entry "O=C(OCCCCO)c1cccc2c1-c1ccccc1C2=O" , Activity value = 0

Tested system PBMC; Activity recorded for "O=C(NCCOCCO)c1ccc2c(c1)C(=O)c1ccccc1-2" was 0

For "O=C(NCCCCO)c1ccc2c(c1)C(=O)c1ccccc1-2" on PBMC, measured Activity was 20

Activity on PBMC for O=C(NCCOCCOC1O[C@H](COC2O[C@H](CO)[C@@H](O)[C@H](O)[C@H]2O)[C@@H](O)[C@H](O)[C@H]1O)c1ccc2c(c1)C(=O)c1ccccc1-2 (single isomer, unassigned) is 0

Case "O=C(OCCCCO[C@@H]1O[C@H](CO)[C@@H](O[C@H]2O[C@H](CO)[C@@H](O)[C@H](O)[C@H]2O)[C@H](O)[C@H]1O)c1cccc2c1-c1ccccc1C2=O" , PBMC, Activity recorded as 26

The compound "O=C(NCCCO)c1ccc2c(c1)C(=O)c1ccccc1-2" , tested on PBMC, showed Activity of 0

* * *

Measured Activity, listed per entry.
- Tested on: PBMC
- Assay details: Induction of TNFalpha release in human PBMC at 20 ug/mL after 48 hrs by ELISA
- Assay type: functional
Please answer using a numeric value trailed by its unit.

The molecule listed as "O=C(NCCOCCO[C@@H]1O[C@H](CO)[C@@H](O[C@H]2O[C@H](CO)[C@@H](O)[C@H](O)[C@H]2O)[C@H](O)[C@H]1O)c1ccc2c(c1)C(=O)c1ccccc1-2" has a reported Activity of 18 pg/mL

Kindly note the recorded Activity for "O=C(OCCCCO[C@H]1O[C@H](CO[C@H]2O[C@H](CO[C@H]3O[C@H](CO)[C@@H](O)[C@H](O)[C@H]3O)[C@@H](O)[C@H](O)[C@H]2O)[C@@H](O)[C@H](O)[C@H]1O)c1cccc2c1-c1ccccc1C2=O" , which is 9 pg/mL

Entry "O=C(NCCCO)c1ccc2c(c1)C(=O)c1ccccc1-2" — recorded Activity = 40 pg/mL

Reported Activity of O=C(NCCOCCOC1O[C@H](COC2O[C@H](CO)[C@@H](O)[C@H](O)[C@H]2O)[C@@H](O)[C@H](O)[C@H]1O)c1ccc2c(c1)C(=O)c1ccccc1-2 (single isomer, unassigned) : 16 pg/mL

For record "O=C(OCCCO)c1cccc2c1-c1ccccc1C2=O" the listed Activity is 11 pg/mL

For "O=C(NCCOCCO)c1ccc2c(c1)C(=O)c1ccccc1-2" the molecule record lists Activity as 17 pg/mL

Looking up CC(O)CNC(=O)c1ccc2c(c1)C(=O)c1ccccc1-2 (stereo not drawn) , I found its Activity recorded as 20 pg/mL

// "O=C(NCCOCCO[C@H]1O[C@H](CO)[C@@H](O)[C@H](O)[C@H]1O)c1ccc2c(c1)C(=O)c1ccccc1-2" : Activity value = 14 pg/mL

* * *

- Test system: PBMC
- Assay details: Induction of TNFalpha release in human PBMC at 20 ug/mL after 48 hrs by ELISA
- Type: functional
Experimental readout: Activity (pg/mL)
# value in pg/mL; strip the unit string

Reference set (4 entries):
O=C(OCCCCO[C@@H]1O[C@H](CO[C@H]2O[C@H](CO)[C@@H](O)[C@H](O)[C@H]2O)[C@@H](O)[C@H](O)[C@H]1O)c1cccc2c1-c1ccccc1C2=O = 15
O=C(OCCCCO[C@@H]1O[C@H](CO)[C@@H](O)[C@H](O)[C@H]1O)c1cccc2c1-c1ccccc1C2=O = 18
O=C(OCCCCO)c1cccc2c1-c1ccccc1C2=O = 6
O=C(NCCO)c1ccc2c(c1)C(=O)c1ccccc1-2 = 13

According to the records, this compound "O=C(OCCO)c1cccc2c1-c1ccccc1C2=O" displays Activity of 21

Noted for "O=C(NCCOCCO[C@@H]1O[C@H](CO)[C@@H](O)[C@H](O)[C@H]1O)c1ccc2c(c1)C(=O)c1ccccc1-2" : its Activity reads 31

* * *

In this section we review reported Activity values for a set of compounds.
- System: PBMC
- Assay details: Induction of TNFalpha release in human PBMC at 40 ug/mL after 48 hrs by ELISA
- Format: functional
Your answer should be a plain number; it is taken to be in pg/mL.

Examples from the recorded data:
O=C(NCCOCCOC1O[C@H](COC2O[C@H](CO)[C@@H](O)[C@H](O)[C@H]2O)[C@@H](O)[C@H](O)[C@H]1O)c1ccc2c(c1)C(=O)c1ccccc1-2 (single isomer, unassigned) = 21
O=C(NCCCO)c1ccc2c(c1)C(=O)c1ccccc1-2 = 51

Here is the next item to consider.
Measured Activity of CC(O)CNC(=O)c1ccc2c(c1)C(=O)c1ccccc1-2 (stereo not drawn) : 33

* * *

- Test system: PBMC
- Assay details: Cytotoxicity against human PBMC at 60 ug/mL after 48 hrs by MTT assay
- Type: cell-based
Experimental readout: Activity (%)
// return numeric value only (unit: %, not printed)

Look over these answered cases.
O=C(NCCOCCO)c1ccc2c(c1)C(=O)c1ccccc1-2 = 4
O=C(OCCCCO[C@@H]1O[C@H](CO[C@H]2O[C@H](CO)[C@@H](O)[C@H](O)[C@H]2O)[C@@H](O)[C@H](O)[C@H]1O)c1cccc2c1-c1ccccc1C2=O = 52

Next item in the queue.
Item: "O=C(NCCCO)c1ccc2c(c1)C(=O)c1ccccc1-2" | Activity: 15

* * *

- Tested on: PBMC
- Assay details: Cytotoxicity against human PBMC at 40 ug/mL after 48 hrs by MTT assay
- Type: cell-based
Experimental readout: Activity (%)
// units = %; emit number, no label

get_value(item= "O=C(OCCCCO)c1cccc2c1-c1ccccc1C2=O" , readout=Activity) returns 21

// Activity value for "O=C(NCCCCO)c1ccc2c(c1)C(=O)c1ccccc1-2" : 28

Briefly, Activity measured for "O=C(OCCO)c1cccc2c1-c1ccccc1C2=O" : 6

* * *

- Tested on: PBMC
- Assay details: Cytotoxicity against human PBMC at 60 ug/mL after 48 hrs by MTT assay
- Format: cell-based
Collected Activity values appear next to each entry.
Report only the number, with the unit % understood.

O=C(OCCCCO[C@@H]1O[C@H](CO)[C@@H](O[C@H]2O[C@H](CO)[C@@H](O)[C@H](O)[C@H]2O)[C@H](O)[C@H]1O)c1cccc2c1-c1ccccc1C2=O = 69

Please fill in: Activity reported for "O=C(OCCCCO[C@H]1O[C@H](CO[C@H]2O[C@H](CO[C@H]3O[C@H](CO)[C@@H](O)[C@H](O)[C@H]3O)[C@@H](O)[C@H](O)[C@H]2O)[C@@H](O)[C@H](O)[C@H]1O)c1cccc2c1-c1ccccc1C2=O" = 42

GET /value?item= "O=C(NCCOCCO[C@H]1O[C@H](CO)[C@@H](O)[C@H](O)[C@H]1O)c1ccc2c(c1)C(=O)c1ccccc1-2" &field=Activity returns 16

* * *

- Test system: PBMC
- Assay details: Cytotoxicity against human PBMC at 40 ug/mL after 48 hrs by MTT assay
- Assay type: cell-based
Recorded Activity by entry
Report as a plain number; the unit % is understood.

For orientation, consider the following solved cases.
O=C(NCCCO)c1ccc2c(c1)C(=O)c1ccccc1-2 = 0
O=C(OCCCCO[C@H]1O[C@H](CO[C@H]2O[C@H](CO[C@H]3O[C@H](CO)[C@@H](O)[C@H](O)[C@H]3O)[C@@H](O)[C@H](O)[C@H]2O)[C@@H](O)[C@H](O)[C@H]1O)c1cccc2c1-c1ccccc1C2=O = 19

For the next question, use this molecule.
Quick note, Activity for CC(O)CNC(=O)c1ccc2c(c1)C(=O)c1ccccc1-2 (stereo not drawn) landed at 0
